Molecular target: IMP-1 (Serratia marcescens)
Sequence (P52699 whole entry, looked up, species assumed): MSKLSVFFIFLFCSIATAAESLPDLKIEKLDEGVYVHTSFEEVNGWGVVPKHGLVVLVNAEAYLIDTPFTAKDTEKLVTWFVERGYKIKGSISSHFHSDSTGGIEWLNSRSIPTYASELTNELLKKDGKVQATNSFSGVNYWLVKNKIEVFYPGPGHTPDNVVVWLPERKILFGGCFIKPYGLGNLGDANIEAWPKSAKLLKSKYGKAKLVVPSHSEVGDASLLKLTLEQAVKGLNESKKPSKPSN
Assay: biochemical
Assay type: biochemical
Settings: fluorescence assay, CCF2-FA substrate, 2 pM enzyme, 2 hours at 25° C.; read-out: IMP-1 IC50
parameter.measured: IC50 (nM)

[[record]]
compound = "Nc1nc2c(-c3ccc(S(=O)(=O)N[C@@H]4CNC[C@@H]4N)c(S(N)(=O)=O)c3-c3nn[nH]n3)cccc2[nH]1"
system_tested = "IMP-1 (Serratia marcescens)"
units_label = "nM"
measured_result = 0.745

[[record]]
compound = "CN(C1CNC1)S(=O)(=O)c1ccc(-c2cccc3sc(N)nc23)c(-c2nnn[nH]2)c1S(N)(=O)=O.O=C(O)C(F)(F)F [Example 105, 2,2,2-trifluoroacetate]"
system_tested = "IMP-1 (Serratia marcescens)"
units_label = "nM"
measured_result = 1.18

[[record]]
compound = "NCC1CN(S(=O)(=O)c2ccc(-c3cccc4sc(N)nc34)c(-c3nnn[nH]3)c2S(N)(=O)=O)CCO1.O=C(O)C(F)(F)F (stereo not shown) [Example 104, 2,2,2-trifluoroacetate]"
system_tested = "IMP-1 (Serratia marcescens)"
units_label = "nM"
measured_result = 1.24

[[record]]
compound = "C[C@H](CCN)NS(=O)(=O)c1ccc(-c2cccc3[nH]c(N)nc23)c(-c2nn[nH]n2)c1S(N)(=O)=O"
system_tested = "IMP-1 (Serratia marcescens)"
units_label = "nM"
measured_result = 0.477

[[record]]
compound = "Cn1c(N)nc2c(-c3ccc(S(=O)(=O)N[C@H]4CC[N+](C)(C)C4)c(S(N)(=O)=O)c3-c3nn[n-]n3)cccc21"
system_tested = "IMP-1 (Serratia marcescens)"
units_label = "nM"
measured_result = 0.346

[[record]]
compound = "NCC(CN)NS(=O)(=O)c1ccc(-c2cccnc2N)c(-c2nn[nH]n2)c1S(N)(=O)=O"
system_tested = "IMP-1 (Serratia marcescens)"
units_label = "nM"
measured_result = 1.5

[[record]]
compound = "Nc1nc2c(-c3ccc(S(=O)(=O)N4CCC(F)(F)C4)c(S(N)(=O)=O)c3-c3nnn[nH]3)cccc2s1"
system_tested = "IMP-1 (Serratia marcescens)"
units_label = "nM"
measured_result = 1.23

[[record]]
compound = "Nc1nc2c(-c3ccc(S(=O)(=O)N[C@@H]4CNC[C@H]4N)c(S(N)(=O)=O)c3-c3nn[nH]n3)cccc2[nH]1"
system_tested = "IMP-1 (Serratia marcescens)"
units_label = "nM"
measured_result = 0.814

[[record]]
compound = "NC[C@@H](N)CNS(=O)(=O)c1ccc(-c2cnc3cc[nH]c3c2)c(-c2nn[nH]n2)c1S(N)(=O)=O"
system_tested = "IMP-1 (Serratia marcescens)"
units_label = "nM"
measured_result = 0.354

[[record]]
compound = "NCC(CN)NS(=O)(=O)c1ccc(-c2cccc3ccc(N)nc23)c(-c2nn[nH]n2)c1S(N)(=O)=O"
system_tested = "IMP-1 (Serratia marcescens)"
units_label = "nM"
measured_result = 0.102

[[record]]
compound = "NCCNS(=O)(=O)c1ccc(-c2cccc3[nH]c([C@@H](N)CN)nc23)c(-c2nn[nH]n2)c1S(N)(=O)=O"
system_tested = "IMP-1 (Serratia marcescens)"
units_label = "nM"
measured_result = 2.9

[[record]]
compound = "CN1CC2(CCN(S(=O)(=O)c3ccc(-c4cccc5sc(N)nc45)c(-c4nnn[nH]4)c3S(N)(=O)=O)C2)C1"
system_tested = "IMP-1 (Serratia marcescens)"
units_label = "nM"
measured_result = 1.43

[[record]]
compound = "C[C@@H](CN)NS(=O)(=O)c1ccc(-c2cc(F)cc3[nH]c(N)nc23)c(-c2nn[nH]n2)c1S(N)(=O)=O"
system_tested = "IMP-1 (Serratia marcescens)"
units_label = "nM"
measured_result = 1.6

